- System Under Test: GDP-bound KRAS protein (aa 1-169), G12D and C118A; SOS-mediated nucleotide exchange (Homo sapiens (Human), UniProt P01116, C118A/G12D)
- Sequence (P01116 other isoform, or with tags, fused parts or gaps G12D/C118A): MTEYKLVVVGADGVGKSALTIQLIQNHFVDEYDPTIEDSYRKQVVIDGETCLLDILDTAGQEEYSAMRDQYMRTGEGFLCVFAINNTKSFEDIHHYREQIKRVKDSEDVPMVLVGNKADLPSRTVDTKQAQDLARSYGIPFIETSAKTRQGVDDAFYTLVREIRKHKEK
- Method Description: KRAS G12D Coupled Nucleotide Exchange Assay
- Condition Parameters: 2 h compound pre-incubation, GTP, cRAF AlphaScreen
Readout: IC50 (nM)
Give the value in nM but do not write nM after it.

[ask] Could you share which IC50 value was measured for N#Cc1c(N)sc2c(F)ccc(-c3c(Cl)cc4c(N5CCC[C@H]5CO)nc(OC[C@@]56CCCN5C[C@H](F)C6)nc4c3F)c12 ?
[reply] 4

[ask] # input compound: C=Cc1cc2c(N3CCOCC(C)(O)C3)nc(OC[C@@]34CCCN3C[C@H](F)C4)nc2c(F)c1-c1ccc(F)c2sc(N)c(C#N)c12 (stereo partly drawn) ; wanted: its IC50
[reply] 3

[ask] Fill in the blank: the reported IC50 of C[C@]1(O)CCCN(c2nc(OC[C@@]34CCCN3C[C@H](F)C4)nc3c(F)c(-c4ccc(F)c5sc(N)c(C#N)c45)c(Cl)cc23)C1 is ____.
[reply] 11
